Test system: HS 578T breast
Assay: NCI-60 one-dose screen, 48 h (100 = growth as untreated, 0 = no growth, -100 = all killed)
Settings: 10 µM
Description: Growth inhibition of the HS 578T human tumor cell line is measured as a screen for anti-cancer activity. Cells are grown in 96 well plates and exposed to the test compound for 48 hours. Compounds are tested at a single concentration, which is 10^-5 M for most compounds. The reported endpoint is percent growth (GI% or GIPRCNT), where numbers from 0 - 100% represent growth inhibition, and numbers from -100% - 0 represent cell death. For example, a value of 40 represents 60% growth inhibition. […]
About 83,000 compounds went through this panel and 20% of them were active in at least one assay; those are over-represented in the sample as a whole.
growth for assorted compounds
Numbers only; they are read as %.

## Input May I ask what growth has been recorded for "CC(=O)Nc1ccc(-c2cn(-c3cccc(C(=O)Nc4ccc(Cl)c(C(F)(F)F)c4)c3)nn2)cn1" ?
## Output -12

## Input Fill in: growth of "Nc1nc(Nc2ccc(Cl)cc2)n(Cc2cccc(Br)c2)n1" is ___
## Output -25.9

----------
System: OVCAR-8 ovarian
Experiment: NCI-60 one-dose screen, 48 h
Settings: 10 µM
Compounds without any hit were thinned out: in the full panel of roughly 83,000, 20% have a hit. Active and inactive are the calls of the source. Rule for the calls: active = growth percent below 10; inactive = the rest.
Give your call using only these classes: class 1 for active, class 0 for inactive

As a guide, the following entries are already answered.
COc1cc(/C=C/C(=O)c2ccc(C(F)(F)F)cc2)ccc1Oc1nc(Nc2ccc(F)cc2)nc(N(C)C)n1 ... class 0
COc1cc2c(cc1OC)CN(CCCCOc1cc(O)c3c(=O)cc(-c4ccccc4)oc3c1)CC2 ... class 0
Cn1cc(/C=N/Nc2ccnc3cc(Cl)ccc23)c2ccccc21 ... class 1
O=c1cc(-c2ccccc2)oc2cc(OCCCCNCc3ccccc3)cc(O)c12 ... class 0
COc1ccc2nc(Nc3cccc(NC(=O)c4ccc(CN5CCN(C)CC5)c(C(F)(F)F)c4)c3)ccc2c1 ... class 1
O=C(Cn1cc(CSc2nnc3oc4ccccc4n23)nn1)Nc1ccc(Br)cc1 ... class 0
N#Cc1c(-c2ccc(F)cc2)nc(SCc2ccc([N+](=O)[O-])cc2)nc1N1CCOCC1 ... class 0
Cc1cccc(NC(=O)CSc2nc3ccc(F)cc3c(=O)n2-c2ccc(Cl)cc2)c1C ... class 0
COc1ccc2c3nc4cc(C)c(C)cc4nc3n(CCN(C)C)c2c1 ... class 1

Alright, here's another molecule for you.
## Input Please share the test call associated with "O=C(Nc1ccc(I)cc1)Nc1nc2ccc([N+](=O)[O-])cc2s1" .
## Output class 1

----------
System: MDA-MB-231 breast
Test: NCI-60 one-dose screen, 48 h (100 = growth as untreated, 0 = no growth, -100 = all killed)
Settings: 10 µM
Compounds without any hit were thinned out: in the full panel of roughly 83,000, 20% have a hit.
Measurement Name: growth (%)
Express it in %; write the number only.

COc1cc(C2CC(c3ccccc3)=Nc3c(N)nc(N)nc3N2)ccc1Oc1nc(Nc2ccc(F)cc2)nc(N(C)C)n1 (configuration not stated) ... 31
Cc1ccc2nc(-c3ccc(-c4nnc(SCC(=O)Nc5ccc(Cl)cc5)o4)cc3)[nH]c2c1 ... 10.6
Cc1ccc(-c2nc(Nc3ccccc3C(=O)O)c3ccccc3n2)cc1 ... 35.4

## Input Which growth is reported for this compound? "Cc1ccn2c(C(=O)c3ccccc3)cc(-c3cc(-c4ccc(N(C)C)cc4)c(C#N)c(N)n3)c2c1"
## Output 25.7

## Input Data request, read-out growth, for "C=CCn1c(SCC(=O)Nc2ccc(C(=O)/C=C/c3ccccc3)cc2)nnc1-c1c[nH]c2ccccc12"
## Output 69.3

## Input Form field: reported growth of "NS(=O)(=O)c1ccc(NC(=O)CSc2ccc(-c3ccc(Cl)cc3)nn2)c(Br)c1"
## Output 8.72

## Input // query growth value for entry "O=C(Cn1nc(-c2ccccc2)ccc1=O)NN1C(=O)c2ccccc2C1=O"
## Output 100

## Input I would be grateful if you could share the reported growth for "COc1ccc(NC(=O)Cn2c(/C=C/c3ccc(N(C)C)cc3)nc3ccccc3c2=O)cc1" .
## Output 18.8

## Input # lookup: growth of COc1ccc([C@H]2C(C(=O)c3ccc(Cl)cc3)C3(N[C@@H]2c2ccccc2)C(=O)Nc2ccc(Cl)cc23)cc1 (some centres not stated)
## Output -68.3

Data credit: PubChem BioAssay (NCI)
